For each of the compounds below, state its Coupled exchange IC50 (5 min).
# system: GDP-bound KRAS protein (aa 1-169), containing both G12C and C118A amino acid substitutions (Homo sapiens, UniProt P01116, C118A/G12C)
# Sequence (P01116 1-169 isoform P01116-2 G12C/C118A): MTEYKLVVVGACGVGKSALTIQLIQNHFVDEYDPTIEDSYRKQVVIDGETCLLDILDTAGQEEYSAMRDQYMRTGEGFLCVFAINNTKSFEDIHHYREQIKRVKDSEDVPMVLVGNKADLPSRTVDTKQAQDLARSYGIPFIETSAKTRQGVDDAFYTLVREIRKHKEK
# procedureText: Coupled nucleotide exchange assay (SOS-mediated, AlphaScreen)
# Type: biochemical
# testParameters: 5 min compound pre-incubation

# query: Coupled exchange IC50 (5 min) of entry C=CC(=O)N1CCN(c2nc(CN(C)C)c(-c3ccccc3C(C)C)c3nc(-c4ccccc4F)c(Cl)cc23)[C@@H](C)C1 [Example 86-1]
3.95 | nda μM

# query: Coupled exchange IC50 (5 min) of entry C=CC(=O)N1CCN(c2nc(=O)n(-c3ccccc3C(C)C)c3nc(-c4cc(OC)ccc4Cl)c(Cl)cc23)[C@@H](C)C1 [Example 54-89]
0.271 | nda μM

# query: Coupled exchange IC50 (5 min) of entry C=CC(=O)N1CCN(c2nc(=O)n(-c3c(C)cccc3C(C)C)c3nc(-c4nc(N)cc5ccccc45)c(F)cc23)[C@@H](C)C1 [71-2]
2.17 | nda μM

# query: Coupled exchange IC50 (5 min) of entry C=CC(=O)N1CCN(c2nc(=O)n(-c3nccnc3CC)c3nc(-c4c(O)cccc4F)c(Cl)cc23)[C@@H](C)C1 [Example 54-37]
0.304 | nda μM

# query: Coupled exchange IC50 (5 min) of entry C=CC(=O)N1CCN(c2nc(=O)n(-c3ccccc3C)c3nc(-c4ccccc4F)c(Cl)cc23)[C@@H](C)C1 [Example 60-14]
2.24 | nda μM

# query: Coupled exchange IC50 (5 min) of entry C=CC(=O)N1CCN(c2nc(=O)n(-c3c(C(C)C)ncnc3N(C)C)c3nc(-c4ccccc4F)c(Cl)cc23)[C@@H](C)C1 (single isomer, unassigned) [Example 140-2]
0.677 | nda μM

# query: Coupled exchange IC50 (5 min) of entry C=CC(=O)N1CCN(c2nc(=O)n(-c3c(C)cccc3C(C)(C)C)c3nc(-c4c(O)cccc4F)c(F)cc23)[C@@H](C)C1 (single isomer, unassigned) [Example 57-17-1]
0.316 | nda μM

# query: Coupled exchange IC50 (5 min) of entry C=CC(=O)N1CCN(c2nc(=O)n(-c3c(CC)cccc3CC)c3nc(N4CCC[C@@H]4CO)c(Cl)cc23)[C@@H](C)C1 [Example 66-9]
99.5 | nda μM

# query: Coupled exchange IC50 (5 min) of entry C=CC(=O)N1CCN(c2nc(=O)n(-c3c(C(C)C)nc[nH]c3=O)c3nc(-c4ccccc4F)c(Cl)cc23)[C@@H](C)C1 [Example 54-108]
0.434 | nda μM

# query: Coupled exchange IC50 (5 min) of entry C=CC(=O)N1CCN(c2nc(=O)n(-c3cccnc3C(C)C)c3nc(-c4c(O)cccc4F)c(Cl)cc23)[C@@H](C)C1 (single isomer, unassigned) [Example 54-11-2]
0.343 | nda μM

# query: Coupled exchange IC50 (5 min) of entry C=CC(=O)N1CCN(c2nc(=O)n(-c3c(Cl)cccc3Cl)c3nc(-c4c(O)cccc4F)c(Cl)cc23)[C@@H](C)C1 [Example 54-33]
0.176 | nda μM

# query: Coupled exchange IC50 (5 min) of entry C=CC(=O)N1CCN(c2nc(=O)n(-c3c(CC)ncnc3CC)c3nc(-c4ccccc4F)c(F)cc23)[C@@H](C)C1 [Example 58-22]
2.71 | nda μM

# query: Coupled exchange IC50 (5 min) of entry C=CC(=O)N1CCN(c2nc(=O)n(-c3ccccc3C)c3nc(-c4c(O)cccc4F)c(Cl)cc23)[C@@H](C)C1 [Example 60-15]
0.686 | nda μM

# query: Coupled exchange IC50 (5 min) of entry C=CC(=O)N1C[C@H]2CC[C@@H](C1)N2c1nc(=O)n(-c2c(C)ccnc2C(C)C)c2nc(-c3ccccc3F)c(Cl)cc12 (single isomer, unassigned) [Example 78-13]
2.22 | nda μM

# query: Coupled exchange IC50 (5 min) of entry C=CC(=O)N1CCN(c2nc(=O)n(-c3c(C)ccnc3N(C)C)c3nc(-c4ccccc4F)c(Cl)cc23)[C@@H](C)C1 (single isomer, unassigned) [Example 55-7-2]
0.325 | nda μM

# query: Coupled exchange IC50 (5 min) of entry C=CC(=O)N1CCN(c2nc(=O)n(-c3ncccc3C3(C#N)CC3)c3nc(-c4c(O)cccc4F)c(Cl)cc23)[C@@H](C)C1 [Example 54-40]
21.3 | nda μM

# query: Coupled exchange IC50 (5 min) of entry C=CC(=O)N1CCN(c2nc(CN(C)C)c(-c3ccccc3C(C)C)c3nc(-c4ccccc4F)c(Cl)cc23)CC1 [86-2]
6.6 | nda μM

# query: Coupled exchange IC50 (5 min) of entry C=CC(=O)N1CCN(c2nc(=O)n(-c3cccnc3C(C)(C)C)c3nc(-c4ccccc4F)c(Cl)cc23)[C@@H](C)C1 [Example 54-112]
0.084 | nda μM

====

# system: GDP-bound KRAS protein (aa 1-169), containing both G12C and C118A amino acid substitutions (Homo sapiens, UniProt P01116, C118A/G12C)
# procedureText: Coupled nucleotide exchange assay (SOS-mediated, AlphaScreen)
# Type: biochemical
# testParameters: 5 min compound pre-incubation
For each of the compounds below, state its Coupled exchange IC50 (5 min).

# query: Coupled exchange IC50 (5 min) of entry `C=CC(=O)N1CCN(c2nc(=O)n(-c3c(C)noc3C(C)C)c3nc(-c4ccccc4F)c(Cl)cc23)[C@@H](C)C1`
0.309 | nda μM

# query: Coupled exchange IC50 (5 min) of entry C=CC(=O)N1CCN(c2nc(=O)n(-c3c(C)ccnc3C(C)C)c3nc(-c4ccccc4F)c(Cl)cc23)[C@@H](C(F)(F)F)C1 (single isomer, unassigned)
0.423 | nda μM

# query: Coupled exchange IC50 (5 min) of entry C=CC(=O)N1CCN(c2nc(=O)n(-c3ccccc3C(C)C)c3nc(N4CCCCC4)c(Cl)cc23)[C@@H](C)C1 (single isomer, unassigned) [Example 69-1-2]
0.604 | nda μM

# query: Coupled exchange IC50 (5 min) of entry `C=CC(=O)N1CCN(c2nc(=O)n(-c3c(C)cc(O)nc3C(C)C)c3nc(-c4ccccc4F)c(Cl)cc23)[C@@H](C)C1`
0.5 | nda μM

# query: Coupled exchange IC50 (5 min) of entry C=CC(=O)N1CCN(c2nc(=O)n(-c3cccnc3C(C)(C)C)c3nc(-c4ccccc4F)c(Cl)cc23)[C@@H](C)C1 (single isomer, unassigned) [Example 54-112-2]
5.02 | nda μM

====

For each of the molecules below, state its Coupled exchange IC50 (5 min).
# system: GDP-bound KRAS protein (aa 1-169), containing both G12C and C118A amino acid substitutions (Homo sapiens, UniProt P01116, C118A/G12C)
# procedureText: Coupled nucleotide exchange assay (SOS-mediated, AlphaScreen)
# Assay type: biochemical
# testParameters: 5 min compound pre-incubation

# query: Coupled exchange IC50 (5 min) of entry `C=CC(=O)N1CCN(c2nc(=O)n(-c3ncccc3C(=C)C)c3nc(-c4c(O)cccc4F)c(Cl)cc23)[C@@H](C)C1`
0.113 | nda μM

# query: Coupled exchange IC50 (5 min) of entry `C=CC(=O)N1CCN(c2nc(=O)n(-c3c(C)cccc3C3CC3)c3nc(-c4ccccc4F)c(F)cc23)[C@@H](C)C1`
2.45 | nda μM

# query: Coupled exchange IC50 (5 min) of entry C=CC(=O)N1CCN(c2nc(=O)n(-c3ccccc3S(C)(=O)=O)c3nc(-c4c(O)cccc4F)c(Cl)cc23)[C@@H](C)C1 (single isomer, unassigned) [Example 54-56-2]
1.24 | nda μM

# query: Coupled exchange IC50 (5 min) of entry C=CC(=O)N1CCN(c2nc(=O)n(-c3c(C)ncnc3C(C)C)c3nc(-c4cc(C)ccc4F)c(Cl)cc23)[C@@H](C)C1 [Example 55-40]
0.1 | nda μM

# query: Coupled exchange IC50 (5 min) of entry C=CC(=O)N1CCN(c2nc(=O)n(-c3ccccc3C3(C)CC3)c3nc(-c4c(O)cccc4F)c(Cl)cc23)[C@@H](C)C1 (single isomer, unassigned) [Example 54-97-1]
0.971 | nda μM
